Source listed as patent US4021574A.

Test Details: LD50 s.c. in the mouse
Condition Description: in vivo, sc
Quantity Name: LD50

IN: What does the data say about its LD50? Entry: CCNC(=O)/C=C(C)/C=C/C=C(C)/C=C/c1c(C)cc(OC)c(C)c1C
OUT: > 4000 mg/kg
